BSA values for the compounds below.
biological target: BSA (Bos taurus); construct: gene ALB; design: Intact protein LC/MS covalent labelling, fragments in pools of five, 200 uM each, 4 °C; conditions: 24 h, 4 °C, pool of five; 200 µM; covalent
The answer should be a number; do not append a unit.

Below, 10 compounds whose answers are already recorded.
compound	BSA
O=C(CCl)Nc1cc(Cl)ccc1C(=O)O [PCM-0102412]	0
COC(=O)C1Cc2ccccc2CN1C(=O)CCl (centres unmarked) [PCM-0102841]	0
CN(C(=O)CCl)c1ccc([N+](=O)[O-])cc1 [PCM-0102669]	0
O=C(CCl)Nc1ccc2c(c1)OC(F)(F)O2 [PCM-0102738]	0
C=CC(=O)N1CCCCC1c1cnn(C)c1 (centres unmarked) [PCM-0102675]	0
O=C(CCl)N1CCN(c2ccccc2[N+](=O)[O-])CC1 [PCM-0103016]	0.16
NC(=O)c1ccsc1NC(=O)CCl [PCM-0102314]	0
O=C(CCl)NC(=O)Nc1ccc(Br)cc1 [PCM-0102308]	0.11
O=C(CCl)Nc1ccc([N+](=O)[O-])cc1Br [PCM-0102848]	0
N#Cc1cnn(-c2ccccc2)c1NC(=O)CCl [PCM-0102225]	0

// moving on: another record for BSA
Provide one value: measured BSA of Cc1ccc(NC(=O)NC(=O)CCl)cc1C [PCM-0102119] 0

----------
BSA values for the molecules below.
target: BSA (Bos taurus, UniProt P02769); construct: gene ALB; parameters: Intact protein LC/MS covalent labelling, fragments in pools of five, 200 uM each, 4 °C; conditions: 24 h, 4 °C, pool of five; 200 µM; covalent
Sequence (P02769 whole entry, the tested form may be a part): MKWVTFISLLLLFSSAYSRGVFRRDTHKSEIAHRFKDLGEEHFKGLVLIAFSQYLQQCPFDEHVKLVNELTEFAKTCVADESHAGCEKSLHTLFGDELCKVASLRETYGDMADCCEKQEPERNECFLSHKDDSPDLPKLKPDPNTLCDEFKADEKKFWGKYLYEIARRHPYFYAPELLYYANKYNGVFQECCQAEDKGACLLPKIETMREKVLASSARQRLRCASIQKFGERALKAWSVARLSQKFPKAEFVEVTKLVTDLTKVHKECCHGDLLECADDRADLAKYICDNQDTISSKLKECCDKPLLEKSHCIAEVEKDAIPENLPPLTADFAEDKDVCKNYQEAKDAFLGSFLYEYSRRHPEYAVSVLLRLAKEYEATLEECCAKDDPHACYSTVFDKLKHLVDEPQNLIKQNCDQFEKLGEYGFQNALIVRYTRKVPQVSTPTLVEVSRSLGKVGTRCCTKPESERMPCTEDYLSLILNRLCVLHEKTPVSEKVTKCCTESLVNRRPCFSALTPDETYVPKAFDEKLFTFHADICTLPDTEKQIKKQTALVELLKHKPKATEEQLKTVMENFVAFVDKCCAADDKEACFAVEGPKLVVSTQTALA
The answer should be a number; do not append a unit.

Below, 5 molecules whose answers are already recorded.
molecule	BSA
CC(C)(C)OC(=O)CNC(=O)CCl	0.18
CNC(=O)c1ccc(NC(=O)CCl)cc1	0
C=CC(=O)Nc1nc2ccccc2s1	0
N#Cc1c(NC(=O)CCl)sc2c1CCCCC2	0
CC(C)C(C#N)N1CCN(C(=O)CCl)CC1 (stereo not drawn)	0

// moving on: another record for BSA
Please look at `CN(CC(=O)NC(C)(C)C)C(=O)CCl` and tell me its recorded BSA on BSA (Bos taurus, UniProt P02769). 0

----------
assay: in vitro; set-up: species or system HB2, HEK293; conditions: human, ccd841 cells
viability at 48 h, 10 µM values for the compounds below.
Form entry: value (%) — number only.

compound	value.unit	reported.result
CN(Cc1cc(Cl)cc(Cl)c1)C(=O)CCl [PCM-0102678]	%	22

Provide one value: measured viability at 48 h, 10 µM of CC1CC(C)CN(C(=O)CCl)C1 (stereo not shown) [PCM-0102789] 83.1

Provide one value: measured viability at 48 h, 10 µM of C=CC(=O)NC1CCOC2(CCS(=O)(=O)C2)C1 (stereo not shown) [PCM-0102645] 115

----------
viability at 48 h, 10 µM values for the molecules below.
test: in vitro; set-up: species or system CCD841, HEK293; details: human, hb2 cells, read-out: HB-2 Cells Viability (%)
Form entry: value (%) — number only.

Provide one value: measured viability at 48 h, 10 µM of C=CC(=O)NC1(C#N)CCOC1 (stereo not shown) [PCM-0103049] 99.3

Provide one value: measured viability at 48 h, 10 µM of C=CC(=O)N1CCn2nc(C)nc2C1 [PCM-0102605] 102

Provide one value: measured viability at 48 h, 10 µM of N#CSc1ccc(NC(=O)CCl)c(F)c1 [PCM-0102548] 19.2

Provide one value: measured viability at 48 h, 10 µM of O=C(CCl)N1CCCc2cccc(F)c21 [PCM-0103071] 62.4

These data points were gathered from paper PMC6556873.
